Reference source for all entries: patent US8133902B2

- System: HCT-116 colon carcinoma
- Experimental protocol: in vitro cytotoxicity against HCT-116 colon carcinoma
- Format: cell-based
- Experimental conditions: Homo sapiens, HCT-116, read-out: in vitro cytotoxicity IC50
Observation type: IC50 (µM)
Give your result in µM as a bare value.

CN1C(=O)c2cc(C(N)=O)nc3c(N)c(Cl)c(N)c1c23 [Compound IB, ammosamide B] | 0.32

Now look at this entry.
# lookup: IC50 of CN1C(=S)c2cc(C(N)=O)nc3c(N)c(Cl)c(N)c1c23 [Compound IA, ammosamide A]
0.32
